# Tested on: human esophageal carcinoma EC-1 cells
# assayComment: MTT assay on human esophageal carcinoma EC-1 cells
# Format: cell-based
# cond: 72 h, 5-80 μM, read-out: The inhibitory effect IC50 on human esophageal carcinoma EC-1 cells
parameterMeasured: IC50 (µM)
Record the value in µM, omitting the unit from your answer.

-- ask Need IC50 of N.N.[Cl][Pt][Cl] [cis-platin, reference compound] , thanks.
-- reply 9.4
